What IC50, HIV-1 NL4.3 (X4), MT-4 was measured for each of the following?
target: CXCR4 and CD4 co-expressed on cells (MOLM-13, THP-1, MT-4, PBMC; Jurkat CD4 low) (human, UniProt P61073 1-352; P01730 26-458); experiment: cell-based or functional assay
Sequence (P61073 whole entry, chain 1 of 2, other chains not shown): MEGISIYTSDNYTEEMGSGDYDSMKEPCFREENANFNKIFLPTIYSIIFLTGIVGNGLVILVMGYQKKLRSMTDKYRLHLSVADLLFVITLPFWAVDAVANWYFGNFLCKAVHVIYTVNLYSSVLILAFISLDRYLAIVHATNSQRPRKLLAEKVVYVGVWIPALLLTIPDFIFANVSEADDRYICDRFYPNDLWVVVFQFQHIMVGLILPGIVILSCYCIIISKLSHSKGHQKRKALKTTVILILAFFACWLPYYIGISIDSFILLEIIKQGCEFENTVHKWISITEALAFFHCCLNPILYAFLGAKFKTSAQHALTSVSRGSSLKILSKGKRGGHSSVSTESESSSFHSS

Reported IC50, HIV-1 NL4.3 (X4), MT-4 ( 03F11-35GS-281F12 (bispecific antibody, also called CD4#8-35GS-CXCR4#2; CD4#8-CXCR4#2) EVQLVESGGGSVQPGGSLTLSCGTSGRTFNVMGWFRQAPGKEREFVAAVRWSSTGIYYTQYADSVKSRFTISRDNAKNTVYLEMNSLKPEDTAVYYCAADTYNSNPARWDGYDFRGQGTQVTVSSGGGGSGGGGSGGGGSGGGGSGGGGSGGGGSGGGGSEVQLVESGGGLVQAGDSLRLSCAASGRAFSRYAMGWFRQAPGKEREFVAAIGWGPSKTNYADSVKGRFTISRDNAKNTVYLQMNTLKPEDTAVYSCAAKFVNTDSTWSRSEMYTYWGQGTQVTVSS ) = 11.7 nM

Reported IC50, HIV-1 NL4.3 (X4), MT-4 ( 03F11-9GS-281F12 (bispecific antibody) EVQLVESGGGSVQPGGSLTLSCGTSGRTFNVMGWFRQAPGKEREFVAAVRWSSTGIYYTQYADSVKSRFTISRDNAKNTVYLEMNSLKPEDTAVYYCAADTYNSNPARWDGYDFRGQGTQVTVSSGGGGSGGGGSEVQLVESGGGLVQAGDSLRLSCAASGRAFSRYAMGWFRQAPGKEREFVAAIGWGPSKTNYADSVKGRFTISRDNAKNTVYLQMNTLKPEDTAVYSCAAKFVNTDSTWSRSEMYTYWGQGTQVTVSS ) = 14.9 nM

Reported IC50, HIV-1 NL4.3 (X4), MT-4 ( 281F12-35GS-03F11 (bispecific antibody, also called CXCR4#2-35GS-CD4#8; CXCR4#2-CD4#8) EVQLVESGGGLVQAGDSLRLSCAASGRAFSRYAMGWFRQAPGKEREFVAAIGWGPSKTNYADSVKGRFTISRDNAKNTVYLQMNTLKPEDTAVYSCAAKFVNTDSTWSRSEMYTYWGQGTQVTVSSGGGGSGGGGSGGGGSGGGGSGGGGSGGGGSGGGGSEVQLVESGGGSVQPGGSLTLSCGTSGRTFNVMGWFRQAPGKEREFVAAVRWSSTGIYYTQYADSVKSRFTISRDNAKNTVYLEMNSLKPEDTAVYYCAADTYNSNPARWDGYDFRGQGTQVTVSS ) = 0.24 nM
